experimentSummary: growth inhibition of DIPG cells – cell-based, MIPE5.0 library, qHTS (AID 1347068);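 for IC50: cells exposed to compound for 48 hours before viability readout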
appliedConditions: SU-DIPG-XXV viability
Results filed as inconclusive are left out. The source made the active and inactive calls. No cut-off is given here; in the data, nearly all actives have IC50 up to about 30 µM.
measuredEndpoint: IC50

Solved entries (count: 4):
# smilesCode, IC50
measured = [
    ("COc1nnc2ccc(N3CCC(c4ccc(OCCN5CCN(C)C(=O)[C@H]5C)cc4)CC3)nn12", "inactive"),
    ("NCc1c[nH]c(=S)n1[C@H]1CCc2c(F)cc(F)cc2C1", "inactive"),
    ("CN1CCN(c2nc(C3=C(c4c[nH]c5ccccc45)C(=O)NC3=O)c3ccccc3n2)CC1", "inactive"),
    ("CC(C)(C)Sc1c(CC(C)(C)C(=O)O)n(Cc2ccc(Cl)cc2)c2ccc(OCc3ccc4ccccc4n3)cc12", "inactive"),
]

-- ask For COc1ccc(F)c(F)c1C(=O)c1cnc(NC2CCN(S(C)(=O)=O)CC2)nc1N , what is its reported IC50?
-- reply 1860 nM (active)

---

Field: viability. Provide a value for each of the compounds that follow.
experimentSummary: drug combination growth inhibition, ovarian cancer – cell-based, oncology-focused library, rucaparib conditional, profiling panel (AID 1508598)
appliedConditions: patient-derived ovarian cancer cells, CellTiter-Glo viability, 144 h; at 0.00122 µM; OCI-P5x cells; without rucaparib; stronger effect = lower value
Supply the numeric figure in %, leaving out any unit text.

-- ask For COc1ccc(-c2ccc3c(N4CCOC[C@@H]4C)nc(N4CCOC[C@@H]4C)nc3n2)cc1CO , what is its reported viability?
-- reply 92.8

-- ask Now try O=C(O)c1ccc2c(c1)nc(Nc1cccc(Cl)c1)c1ccncc12 .
-- reply 111

-- ask Now try COc1cc(Nc2ncc3c(n2)-c2ccc(Cl)cc2C(c2c(F)cccc2OC)=NC3)ccc1C(=O)O .
-- reply 106

-- ask Now try CC(C)C[C@H](NC(=O)CNC(=O)c1cc(Cl)ccc1Cl)B(O)O .
-- reply 111

-- ask Now try C/C(=C\C(=O)Nc1ccccc1C(=O)O)c1ccc2ccccc2c1 .
-- reply 101

-- ask Now try Cc1cc(CS(=O)(=O)c2ccccc2)cc(OCc2ccc(CN3CCC[C@@H]3CO)cc2)c1 .
-- reply 108

-- ask Now try Cc1nnc(C(C)C)n1C1CC2CCC(C1)N2CC[C@H](NC(=O)C1CCC(F)(F)CC1)c1ccccc1 (stereo partly drawn) .
-- reply 79.3

-- ask Now try NC(=O)C1CCCc2c1[nH]c1ccc(Cl)cc21 (stereo not drawn) .
-- reply 101

---

experimentSummary: drug combination growth inhibition, ovarian cancer – cell-based, oncology-focused library, rucaparib conditional, profiling panel (AID 1508598)
appliedConditions: patient-derived ovarian cancer cells, CellTiter-Glo viability, 144 h; at 1.25 µM; OCI-C5x cells; without rucaparib; stronger effect = lower value
measuredEndpoint: viability (%)
Supply the numeric figure in %, leaving out any unit text.

-- ask For CNC(=O)c1ccc(N2C(=S)N(c3ccc(C#N)c(C(F)(F)F)c3)C(=O)C2(C)C)cc1F , what is its reported viability?
-- reply 104

-- ask Now try CN1CCN(CCOc2cc(OC3CCOCC3)c3c(Nc4c(Cl)ccc5c4OCO5)ncnc3c2)CC1 .
-- reply 87.9

-- ask Now try CN(C)N=Nc1nc[nH]c1C(N)=O .
-- reply 120

-- ask Now try CNC(=O)c1cc(Oc2ccc(NC(=O)Nc3ccc(Cl)c(C(F)(F)F)c3)c(F)c2)ccn1 .
-- reply 104

-- ask Now try Cc1ccc(C(=O)N(CCCN)[C@@H](c2oc3cc(Cl)ccc3c(=O)c2Cc2ccccc2)C(C)C)cc1 .
-- reply 49

-- ask Now try COC(=O)Nc1ccc(-c2nc(N3CCOCC3)c3cnn(C4CCN(C(=O)OC)CC4)c3n2)cc1 .
-- reply 116

-- ask Now try CN(C)Cc1c(C(=O)NCCOc2ccc(C(=O)NO)cc2)oc2ccccc12 .
-- reply 150

-- ask Now try O=C(Cc1ccc(-c2ccc(OCCN3CCOCC3)cc2)cn1)NCc1ccccc1 .
-- reply 34.1

-- ask Now try CC1(C)CCC(c2ccc(Cl)cc2)=C(CN2CCN(c3ccc(C(=O)NS(=O)(=O)c4ccc(N[C@H](CCN5CCOCC5)CSc5ccccc5)c(S(=O)(=O)C(F)(F)F)c4)cc3)CC2)C1 .
-- reply 15.2

Where do these numbers come from? They come from PubChem BioAssay.
